# Target Under Test: PKC epsilon (Homo sapiens)
# Sequence (Q02156 whole entry): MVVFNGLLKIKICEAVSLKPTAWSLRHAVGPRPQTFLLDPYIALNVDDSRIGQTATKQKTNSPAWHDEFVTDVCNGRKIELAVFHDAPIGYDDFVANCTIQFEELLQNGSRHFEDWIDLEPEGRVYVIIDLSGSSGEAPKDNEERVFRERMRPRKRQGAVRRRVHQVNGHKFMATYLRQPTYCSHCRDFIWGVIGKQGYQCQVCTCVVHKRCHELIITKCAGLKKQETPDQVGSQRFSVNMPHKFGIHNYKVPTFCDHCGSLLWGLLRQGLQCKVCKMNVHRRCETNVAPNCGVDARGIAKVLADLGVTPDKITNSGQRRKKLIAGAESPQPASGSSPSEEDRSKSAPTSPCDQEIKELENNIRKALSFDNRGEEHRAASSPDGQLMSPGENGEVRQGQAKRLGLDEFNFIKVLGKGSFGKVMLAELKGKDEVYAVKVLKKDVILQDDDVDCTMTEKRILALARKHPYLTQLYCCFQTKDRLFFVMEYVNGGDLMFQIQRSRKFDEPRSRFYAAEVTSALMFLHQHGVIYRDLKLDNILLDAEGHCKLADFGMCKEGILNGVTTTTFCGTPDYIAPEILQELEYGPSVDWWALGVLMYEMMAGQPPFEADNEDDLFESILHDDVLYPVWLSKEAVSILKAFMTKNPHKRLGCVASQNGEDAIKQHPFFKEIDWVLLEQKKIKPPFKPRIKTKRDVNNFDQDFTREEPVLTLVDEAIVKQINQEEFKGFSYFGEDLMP
pIC50: −log10 of the molar value.
Returns one of satisfied or not satisfied; satisfied when pIC50 is >= 7.

{"Smiles Entry": "CN1C(C)(C)CC(Nc2nc(Nc3ccc(N4CCCC4)c(C(F)(F)F)c3)ncc2F)CC1(C)C", "Target Under Test": "PKC epsilon (Homo sapiens)", "Classification": "satisfied"}
{"Smiles Entry": "CCN1C(=O)C(C)(C)Oc2cc(Nc3ncc(C)c(NC4CC(C)(C)N(C)C(C)(C)C4)n3)ccc21", "Target Under Test": "PKC epsilon (Homo sapiens)", "Classification": "not satisfied"}
{"Smiles Entry": "COc1cc(Nc2ncc(F)c(NC3CC(C)(C)N(C)C(C)(C)C3)n2)cc(-n2cnnn2)c1", "Target Under Test": "PKC epsilon (Homo sapiens)", "Classification": "satisfied"}
{"Smiles Entry": "Cc1cc(Nc2ncc(F)c(NC3CC(C)(C)N(C)C(C)(C)C3)n2)ccc1-c1ccoc1", "Target Under Test": "PKC epsilon (Homo sapiens)", "Classification": "satisfied"}
{"Smiles Entry": "COc1cc(Nc2ncc(C(F)(F)F)c(NC3CC(C)(C)N(C)C(C)(C)C3)n2)cc(OC)c1", "Target Under Test": "PKC epsilon (Homo sapiens)", "Classification": "satisfied"}
